Cited source for all entries: ChEMBL document CHEMBL2384906

tested on: Mus musculus; experiment: Antiinflammatory activity in mouse assessed as inhibition of carrageenan-induced increase in paw volume at 200 mg/kg administered 1 hr prior to carrageenan challenge measured after 3 hrs relative to control; format: functional
value-type: inhibition in vivo at 200 mg/kg (%)
Numbers only here, please. The scale is %.

These recorded examples may help you get a feel for the data.
>  <record-smiles>
COc1ccc(NS(=O)(=O)c2ccc(/N=N/C(C(=O)/C=C/c3ccc(O)c(OC)c3)=C(O)\C=C\c3ccc(O)c(OC)c3)cc2)nn1

>  <assayed-target>
Mus musculus

>  <unit-descriptor>
%

>  <reported-value>
29

$$$$
>  <record-smiles>
COc1cc(/C=C/c2noc(/C=C/c3ccc(O)c(OC)c3)c2/N=N/c2ccc(S(=O)(=O)Nc3cc(C)on3)cc2)ccc1O

>  <assayed-target>
Mus musculus

>  <unit-descriptor>
%

>  <reported-value>
22.5

$$$$

Please report the recorded inhibition in vivo at 200 mg/kg for COc1cc(/C=C/C(CC(/C=C/c2ccc(O)c(OC)c2)=N/c2ccc(S(=O)(=O)Nc3nc(C)cc(C)n3)cc2)=N\c2ccc(S(=O)(=O)Nc3nc(C)cc(C)n3)cc2)ccc1O .
40.3

Okay, and COc1ccc(NS(=O)(=O)c2ccc(/N=N/c3c(/C=C/c4ccc(O)c(OC)c4)nn(-c4ccccc4)c3/C=C/c3ccc(O)c(OC)c3)cc2)nn1 ?
45.1

Okay, and COc1cc(/C=C/C(O)=C/C(/C=C/c2ccc(O)c(OC)c2)=N/c2ccc(S(N)(=O)=O)cc2)ccc1O ?
29

Okay, and COc1cc(/C=C/c2noc(/C=C/c3ccc(O)c(OC)c3)c2/N=N/c2ccc(S(=O)(=O)Nc3nc(C)cc(C)n3)cc2)ccc1O ?
41.9

Okay, and COc1cc(/C=C/C(=O)C(/N=N/c2ccc(S(=O)(=O)Nc3ccccn3)cc2)=C(O)/C=C/c2ccc(O)c(OC)c2)ccc1O ?
9.6
